# PROCEDURE DETAILS: Retention of THC in the mouth after smoking marijuana: THC in saliva and tongue mucus by quantitative GC/MS
# Assay type: in vivo, human
# ASSAY CONDITIONS: human, tongue mucus (mucosal scrapings), inhaled; mucosal scrapings from the top of the tongue, 5 minutes post smoking 0.2 g of marijuana; read-out: THC Concentration, Mucus
MEASUREMENT LABEL: concentration at 5 min (ng/mL)
Number only, in ng/mL; omit the unit.

Reported concentration at 5 min for CCCCCc1cc(O)c2c(c1)OC(C)(C)[C@@H]1CCC(C)=C[C@@H]21 [THC, Tetrahydrocannabinol] : what is it?
587

* * *

# PROCEDURE DETAILS: Retention of THC in the mouth after smoking marijuana: THC in saliva and tongue mucus by quantitative GC/MS
# Assay type: in vivo, human
# ASSAY CONDITIONS: human, tongue mucus (mucosal scrapings), inhaled; mucosal scrapings from the top of the tongue, 2 hours post smoking 0.2 g of marijuana; read-out: THC Concentration, Mucus
MEASUREMENT LABEL: concentration at 2 h (ng/mL)
Number only, in ng/mL; omit the unit.

Reported concentration at 2 h for CCCCCc1cc(O)c2c(c1)OC(C)(C)[C@@H]1CCC(C)=C[C@@H]21 [THC, Tetrahydrocannabinol] : what is it?
412
